Assay: Plasma concentrations by HPLC with fluorescence detection
Assay type: in vivo, human
Details: human, plasma, oral, 75 mg tid, 12 subjects, about 1 month of 75 mg tid; read-out: Plasma trough concentrations, range

Smiles code	concentration at 28 day
CO[C@@H]1[C@H](N(C)C(=O)c2ccccc2)C[C@H]2O[C@]1(C)n1c3ccccc3c3c4c(c5c6ccccc6n2c5c31)C(=O)NC4	771 to 4650 nM

----------
Experiment: Plasma concentrations by HPLC with fluorescence detection
Assay type: in vivo, human
Conditions: human, plasma, oral, 75 mg tid, 12 subjects, about 1 month of 75 mg tid; read-out: Plasma concentrations, median

Molecule	Unit abbrev	concentration at 28 day
CN(C(=O)c1ccccc1)[C@@H]1C[C@H]2O[C@@](C)([C@@H]1O)n1c3ccccc3c3c4c(c5c6ccccc6n2c5c31)C(=O)NC4	µM	5.43
CO[C@@H]1[C@H](N(C)C(=O)c2ccccc2)C[C@H]2O[C@]1(C)n1c3ccccc3c3c4c(c5c6ccccc6n2c5c31)C(=O)N[C@H]4O	µM	18.4
CO[C@@H]1[C@H](N(C)C(=O)c2ccccc2)C[C@H]2O[C@]1(C)n1c3ccccc3c3c4c(c5c6ccccc6n2c5c31)C(=O)NC4	µM	2.34
CO[C@@H]1[C@H](N(C)C(=O)c2ccccc2)C[C@H]2O[C@]1(C)n1c3ccccc3c3c4c(c5c6ccccc6n2c5c31)C(=O)NC4O (single isomer, unassigned) [CGP52421 (e2)]	µM	18.4

----------
Assay: Tumour tissue concentrations by HPLC with fluorescence detection
Assay type: in vivo, human
Details: human, tumour tissue, oral, 75 mg tid, tumour tissue, 10 subjects, about 1 month of 75 mg tid; read-out: Tissue concentrations, minimum

Compound	Unit abbrev	concentration at 28 day
CO[C@@H]1[C@H](N(C)C(=O)c2ccccc2)C[C@H]2O[C@]1(C)n1c3ccccc3c3c4c(c5c6ccccc6n2c5c31)C(=O)NC4O (single isomer, unassigned) [CGP52421 (e2)]	nM	635
CN(C(=O)c1ccccc1)[C@@H]1C[C@H]2O[C@@](C)([C@@H]1O)n1c3ccccc3c3c4c(c5c6ccccc6n2c5c31)C(=O)NC4	nM	175
CO[C@@H]1[C@H](N(C)C(=O)c2ccccc2)C[C@H]2O[C@]1(C)n1c3ccccc3c3c4c(c5c6ccccc6n2c5c31)C(=O)NC4	nM	58

----------
Test: Tumour tissue concentrations by HPLC with fluorescence detection
Assay type: in vivo, human
Details: human, tumour tissue, oral, 75 mg tid, tumour tissue, 10 subjects, about 1 month of 75 mg tid; read-out: Tissue concentrations, maximum

Compound	concentration at 28 day, µM
CO[C@@H]1[C@H](N(C)C(=O)c2ccccc2)C[C@H]2O[C@]1(C)n1c3ccccc3c3c4c(c5c6ccccc6n2c5c31)C(=O)NC4	4.25
CO[C@@H]1[C@H](N(C)C(=O)c2ccccc2)C[C@H]2O[C@]1(C)n1c3ccccc3c3c4c(c5c6ccccc6n2c5c31)C(=O)NC4O (single isomer, unassigned) [CGP52421 (e2)]	3.21
CN(C(=O)c1ccccc1)[C@@H]1C[C@H]2O[C@@](C)([C@@H]1O)n1c3ccccc3c3c4c(c5c6ccccc6n2c5c31)C(=O)NC4	2.35

----------
Assay: Tumour tissue concentrations by HPLC with fluorescence detection
Type: in vivo, human
Details: human, tumour tissue / plasma, oral, 75 mg three times a day, tumour tissue to plasma, 10 subjects; read-out: Tissue/plasma ratios, mean
Recorded Kp at 28 day values for a group of molecules are listed next.

Molecule	Kp at 28 day
CN(C(=O)c1ccccc1)[C@@H]1C[C@H]2O[C@@](C)([C@@H]1O)n1c3ccccc3c3c4c(c5c6ccccc6n2c5c31)C(=O)NC4	0.21
CO[C@@H]1[C@H](N(C)C(=O)c2ccccc2)C[C@H]2O[C@]1(C)n1c3ccccc3c3c4c(c5c6ccccc6n2c5c31)C(=O)NC4O (single isomer, unassigned) [CGP52421 (e2)]	0.085
CO[C@@H]1[C@H](N(C)C(=O)c2ccccc2)C[C@H]2O[C@]1(C)n1c3ccccc3c3c4c(c5c6ccccc6n2c5c31)C(=O)NC4	0.56
